molecular target: human P2X7 receptor (Homo sapiens, UniProt Q99572, R270H/Y155H); test: Evaluation of human P2X7 receptor inhibitory activity (Yo-Pro uptake, BzATP stimulation, FLIPR TETRA); format: cell-based; settings: antagonistic activity for the human P2X7 receptor; read-out: IC50
endpointLabel: IC50

cpdSmiles: COc1cn(Cc2ccc(F)cc2)c(Nc2cccc(OC(F)F)c2C)nc1=O
testSystem: human P2X7 receptor (Homo sapiens, UniProt Q99572, R270H/Y155H)
experimentalResult: 10 to 100 nM

cpdSmiles: COc1cn(Cc2cc(F)cc(F)c2)c(Nc2cc(-c3cnccn3)ccc2C)nc1=O
testSystem: human P2X7 receptor (Homo sapiens, UniProt Q99572, R270H/Y155H)
experimentalResult: 10 to 100 nM

cpdSmiles: O=c1nc(Nc2cccc3c(O)cccc23)n(Cc2cc(F)cc(F)c2)cc1F
testSystem: human P2X7 receptor (Homo sapiens, UniProt Q99572, R270H/Y155H)
experimentalResult: < 10 nM

cpdSmiles: COc1cc(C)c(Nc2nc(=O)c(C(N)=O)cn2Cc2cc(F)c(F)c(F)c2)cc1C
testSystem: human P2X7 receptor (Homo sapiens, UniProt Q99572, R270H/Y155H)
experimentalResult: 10 to 100 nM

cpdSmiles: COc1cn(Cc2cc(F)cc(F)c2)c(Nc2cc(OC(F)(F)F)ccc2C)nc1=O
testSystem: human P2X7 receptor (Homo sapiens, UniProt Q99572, R270H/Y155H)
experimentalResult: 10 to 100 nM

cpdSmiles: CCc1ccc(OC)cc1Nc1nc(=O)c(OC)cn1Cc1cc(F)cc(Cl)c1
testSystem: human P2X7 receptor (Homo sapiens, UniProt Q99572, R270H/Y155H)
experimentalResult: 10 to 100 nM

cpdSmiles: COc1cn(Cc2ccccc2)c(Nc2cccc3c(=O)n(C)ccc23)nc1=O
testSystem: human P2X7 receptor (Homo sapiens, UniProt Q99572, R270H/Y155H)
experimentalResult: 100 to 500 nM

cpdSmiles: COc1cn(Cc2cc(F)cc(Cl)c2)c(Nc2cc(Cl)c(Cl)cc2C)nc1=O
testSystem: human P2X7 receptor (Homo sapiens, UniProt Q99572, R270H/Y155H)
experimentalResult: 100 to 500 nM

cpdSmiles: COc1ccc(C)c(Nc2cc(=O)c(OC)cn2Cc2ccc(F)c(Cl)c2)c1
testSystem: human P2X7 receptor (Homo sapiens, UniProt Q99572, R270H/Y155H)
experimentalResult: 10 to 100 nM

cpdSmiles: COc1cn(Cc2cc(F)cc(F)c2)c(Nc2cc(-c3nnco3)ccc2C)nc1=O
testSystem: human P2X7 receptor (Homo sapiens, UniProt Q99572, R270H/Y155H)
experimentalResult: 10 to 100 nM

cpdSmiles: COc1cn(Cc2ccc(F)c(Cl)c2)c(Nc2cc(F)c(Cl)cc2C)nc1=O
testSystem: human P2X7 receptor (Homo sapiens, UniProt Q99572, R270H/Y155H)
experimentalResult: 10 to 100 nM

cpdSmiles: COc1cn(Cc2cc(F)cc(F)c2)c(Nc2cc(S(C)(=O)=O)cc(C)c2C)nc1=O
testSystem: human P2X7 receptor (Homo sapiens, UniProt Q99572, R270H/Y155H)
experimentalResult: 10 to 100 nM

cpdSmiles: COc1cnc(Nc2cccc(Cl)c2C)n(Cc2ccc(F)c(F)c2)c1=O
testSystem: human P2X7 receptor (Homo sapiens, UniProt Q99572, R270H/Y155H)
experimentalResult: 100 to 500 nM

cpdSmiles: COc1cc(C)c(Nc2nc(=NC#N)c(OC)cn2Cc2cc(F)c(F)c(F)c2)cc1OC
testSystem: human P2X7 receptor (Homo sapiens, UniProt Q99572, R270H/Y155H)
experimentalResult: 10 to 100 nM

cpdSmiles: COc1nc2ccc(Nc3nc(=O)c(OC)cn3Cc3ccc(F)c(Cl)c3)c(C)c2s1
testSystem: human P2X7 receptor (Homo sapiens, UniProt Q99572, R270H/Y155H)
experimentalResult: 10 to 100 nM

cpdSmiles: O=c1nc(Nc2cccc3[nH]ccc23)n(Cc2cc(F)c(F)c(F)c2)cc1F
testSystem: human P2X7 receptor (Homo sapiens, UniProt Q99572, R270H/Y155H)
experimentalResult: < 10 nM

cpdSmiles: COc1cn(Cc2ccc(F)c(Cl)c2)c(Nc2cc(Cl)c(F)cc2C)nc1=O
testSystem: human P2X7 receptor (Homo sapiens, UniProt Q99572, R270H/Y155H)
experimentalResult: 10 to 100 nM

---

target: human P2X7 receptor (Homo sapiens, UniProt Q99572, R270H/Y155H); experiment: Evaluation of human P2X7 receptor inhibitory activity (Yo-Pro uptake, BzATP stimulation, FLIPR TETRA); type: cell-based; conditions: antagonistic activity for the human P2X7 receptor; read-out: IC50
endpointLabel: IC50

compound: Cc1cn(Cc2ccc(F)c(F)c2)c(Nc2ccc3[nH]ccc3c2C)nc1=O [Compound I-1168]
endpointLabel: IC50
experimentalResult: < 10 nM

compound: Cc1c(Nc2nc(=O)ccn2Cc2cc(F)c(F)c(F)c2)ccc2[nH]ccc12 [Compound I-1169]
endpointLabel: IC50
experimentalResult: < 10 nM

compound: COc1ccc(C)c(Nc2cc(=O)c(OC)cn2Cc2ccccc2)c1 [Compound I-0952]
endpointLabel: IC50
experimentalResult: 100 to 500 nM

compound: COc1cc(C)c(Nc2nc(=O)c(OC)cn2Cc2cc(F)cc(Cl)c2)cc1Cl [Compound I-0672]
endpointLabel: IC50
experimentalResult: < 10 nM

compound: COc1cn(Cc2cc(F)cc(F)c2)c(Nc2cc(N3CCCC3=O)ccc2C)nc1=O [Compound I-0648]
endpointLabel: IC50
experimentalResult: 10 to 100 nM

compound: Cc1nc2cc(Cl)c(Nc3nc(=O)c(F)cn3Cc3cc(F)cc(F)c3)cc2o1 [Compound I-1075]
endpointLabel: IC50
experimentalResult: < 10 nM

compound: COc1cn(Cc2cc(F)cc(Cl)c2)c(Nc2cc(-n3cccc3)ccc2C)nc1=O [Compound I-0654]
endpointLabel: IC50
experimentalResult: 10 to 100 nM

compound: COc1ccc(Cl)c(Nc2cc(=O)c(OC)cn2Cc2ccc(F)c(Cl)c2)c1 [Compound I-0955]
endpointLabel: IC50
experimentalResult: 10 to 100 nM

compound: CCc1cc(Cl)ccc1Nc1nc(=O)c(OC)cn1Cc1cc(F)cc(Cl)c1 [Compound I-0611]
endpointLabel: IC50
experimentalResult: 10 to 100 nM

compound: COc1cn(Cc2cc(F)cc(F)c2)c(Nc2cccc3c(=O)n(C)ccc23)nc1=O [Compound I-0905]
endpointLabel: IC50
experimentalResult: 100 to 500 nM

compound: Cc1c(Nc2nc(=O)c(F)cn2Cc2cc(F)cc(F)c2)ccc2scnc12 [Compound I-1202]
endpointLabel: IC50
experimentalResult: < 10 nM

compound: COc1cn(Cc2ccccc2)c(Nc2cc(C)c(Cl)cc2F)nc1=O [Compound I-0801]
endpointLabel: IC50
experimentalResult: 100 to 500 nM

compound: COc1cc(C)c(Nc2nc(=O)c(OC)cn2Cc2cccc(Cl)c2)cc1Cl [Compound I-0671]
endpointLabel: IC50
experimentalResult: < 10 nM

compound: CCc1ccc(OC)cc1Nc1nc(=O)c(OC)cn1Cc1cc(F)c(F)c(F)c1 [Compound I-0673]
endpointLabel: IC50
experimentalResult: < 10 nM

compound: Cc1nc2cc(C)c(Nc3nc(=O)c(C)nn3Cc3cc(F)cc(F)c3)cc2s1 [Compound I-1260]
endpointLabel: IC50
experimentalResult: 10 to 100 nM

compound: CCc1ccc(OC)cc1Nc1nc(=O)c(OC)cn1Cc1cc(F)cc(F)c1 [Compound I-0637]
endpointLabel: IC50
experimentalResult: < 10 nM

compound: COc1cnc(Nc2cccc(Cl)c2C)n(Cc2ccc(F)c(Cl)c2)c1=O [Compound I-0971]
endpointLabel: IC50
experimentalResult: 100 to 500 nM

---

target: human P2X7 receptor (Homo sapiens, UniProt Q99572, R270H/Y155H); assay: Evaluation of human P2X7 receptor inhibitory activity (Yo-Pro uptake, BzATP stimulation, FLIPR TETRA); format: cell-based; conditions: 1321N1 cells stably expressing human P2X7 receptor; BzATP stimulation, Yo-Pro uptake; read-out: IC50 (antagonistic activity for the human P2X7 receptor), class symbol

compound: CCc1ccc(OC)cc1Nc1nc(=O)c(OC)cn1Cc1cccc(Cl)c1 [Compound I-0254]
IC50: 0.01 to 0.1 µM
//
compound: COc1cn(Cc2ccc(F)c(F)c2)c(Nc2cccc(C(F)(F)F)c2C)nc1=O [Compound I-0467]
IC50: < 0.01 µM
//
compound: COc1cn(Cc2ccccc2)c(Nc2cc(Cl)c(Cl)cc2C)nc1=O [Compound I-0459]
IC50: < 0.01 µM
//
compound: Cc1ccc(N2CCCS2(=O)=O)cc1Nc1nc(=O)c(Cl)cn1Cc1ccccc1 [Compound I-0313]
IC50: 0.01 to 0.1 µM
//
compound: COc1c(C)ccc(Nc2nc(=O)c(OC)cn2Cc2ccc(F)c(F)c2)c1C [Compound I-0517]
IC50: < 0.01 µM
//
compound: COc1cn(Cc2ccccc2)c(Nc2ccc(Cl)c(Cl)c2Cl)nc1=O [Compound I-0132]
IC50: 0.1 to 0.5 µM
//
compound: COc1cc(F)cc(Cn2cc(OC)c(=O)nc2Nc2cccc(Cl)c2C)c1 [Compound I-0427]
IC50: 0.1 to 0.5 µM
//
compound: COc1cn(Cc2ccccc2)c(Nc2cc(C)c(F)cc2C)nc1=O [Compound I-0433]
IC50: < 0.01 µM
//
compound: Cc1ccc(N2CCCS2(=O)=O)cc1Nc1nc(=O)c(F)cn1Cc1ccccc1 [Compound I-0148]
IC50: 0.01 to 0.1 µM
//
compound: COc1cn(Cc2ccccc2)c(Nc2ccccc2Cl)nc1=O [Compound I-0060]
IC50: 0.5 to 1 µM
//
compound: COc1cn(Cc2ccc(F)cc2)c(Nc2cc(C)ccc2C)nc1=O [Compound I-0332]
IC50: 0.01 to 0.1 µM
//
compound: CCc1ccc(OC)cc1Nc1nc(=O)c(OC)cn1Cc1ccc(F)c(F)c1 [Compound I-0255]
IC50: < 0.01 µM
//
compound: COc1cn(Cc2ccc(Cl)c(F)c2)c(Nc2cc3c(cc2C)OCCO3)nc1=O [Compound I-0293]
IC50: 0.01 to 0.1 µM
//
compound: COc1cc(C)c(Nc2nc(=O)c(OC)cn2Cc2cc(F)cc(F)c2)cc1OC [Compound I-0439]
IC50: < 0.01 µM
//
compound: CCNC(=O)c1cn(Cc2ccccc2)c(Nc2cccc(Cl)c2C)nc1=O [Compound I-0078]
IC50: 0.1 to 0.5 µM
//
compound: Cc1c(Cl)cccc1Nc1nc(=O)c(CC(=O)NCC#N)cn1Cc1ccccc1 [Compound I-0344]
IC50: 0.1 to 0.5 µM
//
compound: COc1ccc(Nc2nc(=O)c(OC)cn2Cc2ccccc2)c(C)c1C [Compound I-0499]
IC50: 0.01 to 0.1 µM
